Assay: melting temperature; melt of duplexes
Settings: sodium 0.0675 M; strand 1 µM
Measurement type: Tm (°C)
Just the number please, in °C, no unit attached.

Recorded Tm for CGACGTGCTAGATGTGCTG+CAGCACATCCTGCACGTCG ((((((((..(((((((((+)))))))))..)))))))) , please?
54.7

Query: Tm; subject: CGACGTGCCGGATGTGCTG+CAGCACATTCCGCACGTCG ((((((((.(.((((((((+)))))))).).))))))))
54

Look up Tm for this substance: CGACGTGCTAGATGTGCTG+CAGCACATGCGGCACGTCG ((((((((...((((((((+))))))))...))))))))
50.3

Name the recorded Tm for CGACGTGCGCCATGTGCTG+CAGCACATGGTGCACGTCG ((((((((.((((((((((+)))))))))).)))))))) .
62.5

Which value of Tm has been reported for CGACGTGCCACATGTGCTG+CAGCACATACCGCACGTCG ((((((((...((((((((+))))))))...)))))))) in the records?
46.7

Which Tm value belongs to CGACGTGCGCCATGTGCTG+CAGCACATGGAGCACGTCG ((((((((.((((((((((+)))))))))).)))))))) ?
62.3

Give the measured Tm of CGACGTGCGTTATGTGCTG+CAGCACATCGGGCACGTCG ((((((((...((((((((+))))))))...)))))))) .
48.6

Find the recorded Tm belonging to CGACGTGCGAAATGTGCTG+CAGCACATAGTGCACGTCG ((((((((...((((((((+))))))))...)))))))) and report it.
46

What value of Tm has been reported for the following substance? CGACGTGCCCTATGTGCTG+CAGCACATTTGGCACGTCG (((((((((..((((((((+))))))))..)))))))))
54.1

# input substance: CGACGTGCAACATGTGCTG+CAGCACATGGGGCACGTCG ((((((((..(((((((((+)))))))))..)))))))) ; wanted: its Tm
58.9

Would you kindly share the measured Tm for CGACGTGCGTCATGTGCTG+CAGCACATAACGCACGTCG ((((((((((.((((((((+)))))))).)))))))))) ?
58

Which Tm is reported for this substance? CGACGTGCTCAATGTGCTG+CAGCACATACAGCACGTCG (((((((((..((((((((+))))))))..)))))))))
50.7

Look up Tm: CGACGTGCTTGATGTGCTG+CAGCACATGTAGCACGTCG (((((((((..((((((((+))))))))..)))))))))
51.7

Please give the measured Tm for this substance: CGACGTGCATGATGTGCTG+CAGCACATATGGCACGTCG ((((((((...((((((((+))))))))...))))))))
49.7

Data request, read-out Tm, for CGACGTGCTCGATGTGCTG+CAGCACATTTGGCACGTCG ((((((((...((((((((+))))))))...))))))))
50.3

* * *

Test: melting temperature; melt of duplexes
Conditions: sodium 0.0675 M; strand 1 µM
I'd appreciate it if you could supply Tm values for the items below.
Quick note: number first, unit second.

What value of measured Tm is listed for CGACGTGCTTGATGTGCTG+CAGCACATTGGGCACGTCG ((((((((...((((((((+))))))))...)))))))) ?
50.7 °C

What measured Tm goes with CGACGTGCCGCATGTGCTG+CAGCACATAGAGCACGTCG ((((((((...((((((((+))))))))...)))))))) ?
50.7 °C

Endpoint output: Tm of CGACGTGCATAATGTGCTG+CAGCACATGGGGCACGTCG ((((((((...((((((((+))))))))...)))))))) . Value?
51.2 °C

# input substance: CGACGTGCGAAATGTGCTG+CAGCACATCATGCACGTCG ((((((((...((((((((+))))))))...)))))))) ; wanted: its Tm
49.9 °C

Which Tm reading was recorded for the substance CGACGTGCACTATGTGCTG+CAGCACATCCCGCACGTCG ((((((((...((((((((+))))))))...)))))))) ?
42.6 °C

# input substance: CGACGTGCATAATGTGCTG+CAGCACATCCGGCACGTCG ((((((((...((((((((+))))))))...)))))))) ; wanted: its Tm
48.3 °C

# Tm lookup, item CGACGTGCCTGATGTGCTG+CAGCACATACGGCACGTCG (((((((((..((((((((+))))))))..)))))))))
54.1 °C
